# System: Caenorhabditis elegans
# ASSAY DETAILS: growth (movement index) relative to DMSO control, secondary screen (log2 fold change); higher = more growth (less anthelmintic activity)
# SETTINGS: 10 µM, 5 days, 20 °C, stage: L1 start
RECORDED METRIC: growth (log2)
No unit in the answer, only the number.

Answered examples (3):
CC(C)n1ncc2c(C(=O)NCC(c3cccs3)N3CCOCC3)cc(-c3ccccc3)nc21 (centres undefined)
-8.04
CC(C)C(C(=O)Nc1ccc(S(=O)(=O)N(C)C)cc1)c1ccc(Cl)cc1 (centres undefined)
-2.66
CCOC(=O)NC(=O)c1ccsc1NC(=O)c1nc2ccccc2s1
-1.05

Here is the next item to consider.
Data request, read-out growth (log2), for CN1CCN(c2cc(-c3ccc(F)cc3)nc(-c3ccncc3)n2)CC1
-2.12
